// Avg F635, Full Lane lookup, one value per entry
- MEASUREMENT TARGET: KRAS (Homo sapiens)
- Construct: His6-tagged human KRas Isoform 4B (residues 1-169); His6; made in house; host or cells: E. coli BL21(DE3), PQE80 vector
- PROTOCOL SUMMARY: B-RAP surface immunofluorescent assay, PCC ligand KRas EC50
- Type: binding
- RUN PARAMETERS: 10 μM KRas well of plate #1, pixel by pixel, full lane
# print the numeric value only

Use the examples below as a reference point.
[
  {
    "COMPOUND": "CC(C)[C@@H]1NC(=O)[C@@H](N)Cc2cn(nn2)CCCC[C@@H](C(=O)NCCOCCOCCOCCOCCOCCC(=O)NCCNC(=O)CCCC[C@@H]2SC[C@@H]3NC(=O)NC32)NC(=O)[C@H](Cc2ccc(O)cc2)NC(=O)[C@@H]2CCCN2C(=O)[C@H](C(C)C)NC(=O)[C@H](CCC(N)=O)NC1=O (single isomer, unassigned) [Ligand L7a, VQVPY]",
    "Avg F635, Full Lane": 32992
  },
  {
    "COMPOUND": "CC(C)[C@@H]1NC(=O)[C@@H](N)Cc2cn(nn2)CCCC[C@@H](C(=O)NCCOCCOCCOCCOCCOCCC(=O)NCCNC(=O)CCCC[C@@H]2SC[C@@H]3NC(=O)N[C@@H]32)NC(=O)[C@H](Cc2ccc(O)cc2)NC(=O)[C@@H]2CCCN2C(=O)[C@H](C(C)C)NC(=O)[C@H](CCC(=O)O)NC1=O (single isomer, unassigned) [Ligand L4a, VEVPY]",
    "Avg F635, Full Lane": 10434
  }
]

query: Query: Avg F635, Full Lane; subject: CC(C)[C@@H]1NC(=O)[C@H](CCC(=O)O)NC(=O)CNC(=O)[C@@H](N)Cc2cn(nn2)CCCC[C@@H](C(=O)NCCOCCOCCOCCOCCOCCC(=O)NCCNC(=O)CCCC[C@@H]2SC[C@@H]3NC(=O)N[C@@H]32)NC(=O)[C@@H]2CCCN2C(=O)[C@H](C(C)C)NC1=O (single isomer, unassigned) [Ligand L3b, GEVVP]
result: 15157

query: Query: Avg F635, Full Lane; subject: CC(C)[C@@H]1NC(=O)[C@@H](N)Cc2cn(nn2)CCCC[C@@H](C(=O)NCCOCCOCCOCCOCCOCCC(=O)NCCNC(=O)CCCC[C@@H]2SC[C@@H]3NC(=O)NC32)NC(=O)[C@H](Cc2ccc(O)cc2)NC(=O)[C@@H]2CCCN2C(=O)[C@H](C(C)C)NC(=O)[C@H](CCC(N)=O)NC1=O (single isomer, unassigned) [Ligand L7b, VQVPY]
result: 14791

====

- MEASUREMENT TARGET: KRAS (Homo sapiens)
- Construct: His6-tagged human KRas Isoform 4B (residues 1-169); His6; made in house; host or cells: E. coli BL21(DE3), PQE80 vector
- PROTOCOL SUMMARY: B-RAP surface immunofluorescent assay, PCC ligand KRas EC50
- Format: binding
- RUN PARAMETERS: 13-point KRas concentration series, each point in decaplicate, Hill coefficient=1
PARAMETER: log10 of EC50 (log10 of the value in µM)
The base-10 logarithm of EC50, taken with EC50 in µM, is what appears here.

Use the examples below as a reference point.
[
  {
    "COMPOUND": "CC(C)[C@@H]1NC(=O)[C@@H](N)Cc2cn(nn2)CCCC[C@@H](C(=O)NCCOCCOCCOCCOCCOCCC(=O)NCCNC(=O)CCCC[C@@H]2SC[C@@H]3NC(=O)NC32)NC(=O)[C@H](Cc2ccc(O)cc2)NC(=O)[C@@H]2CCCN2C(=O)[C@H](C(C)C)NC(=O)[C@H](CCC(N)=O)NC1=O (single isomer, unassigned) [Ligand L7b, VQVPY]",
    "log10 of EC50": 1.40
  },
  {
    "COMPOUND": "NC(=O)CC[C@@H]1NC(=O)[C@@H](N)Cc2cn(nn2)CCCC[C@@H](C(=O)NCCOCCOCCOCCOCCOCCC(=O)NCCNC(=O)CCCC[C@@H]2SC[C@@H]3NC(=O)N[C@@H]32)NC(=O)[C@H](Cc2ccc(O)cc2)NC(=O)[C@H](Cc2ccccc2)NC(=O)[C@H](CC(N)=O)NC(=O)[C@H](CC(=O)O)NC1=O (single isomer, unassigned) [Ligand L9b, QDNFY]",
    "log10 of EC50": 0.59
  },
  {
    "COMPOUND": "CC(C)[C@@H]1NC(=O)[C@@H](N)Cc2cn(nn2)CCCC[C@@H](C(=O)NCCOCCOCCOCCOCCOCCC(=O)NCCNC(=O)CCCC[C@@H]2SC[C@@H]3NC(=O)N[C@@H]32)NC(=O)[C@H](Cc2ccc(O)cc2)NC(=O)[C@@H]2CCCN2C(=O)[C@H](C(C)C)NC(=O)[C@H](CCC(=O)O)NC1=O (single isomer, unassigned) [Ligand L4a, VEVPY]",
    "log10 of EC50": 0.98
  },
  {
    "COMPOUND": "CC(C)[C@@H]1NC(=O)[C@H](CCC(=O)O)NC(=O)CNC(=O)[C@@H](N)Cc2cn(nn2)CCCC[C@@H](C(=O)NCCOCCOCCOCCOCCOCCC(=O)NCCNC(=O)CCCC[C@@H]2SC[C@@H]3NC(=O)N[C@@H]32)NC(=O)[C@@H]2CCCN2C(=O)[C@H](C(C)C)NC1=O (single isomer, unassigned) [Ligand L3a, GEVVP]",
    "log10 of EC50": 0.17
  },
  {
    "COMPOUND": "CC(C)[C@@H]1NC(=O)[C@@H](N)Cc2cn(nn2)CCCC[C@@H](C(=O)NCCOCCOCCOCCOCCOCCC(=O)NCCNC(=O)CCCC[C@@H]2SC[C@@H]3NC(=O)N[C@@H]32)NC(=O)[C@H](Cc2ccc(O)cc2)NC(=O)[C@@H]2CCCN2C(=O)[C@H](C(C)C)NC(=O)[C@H](CCC(=O)O)NC1=O (single isomer, unassigned) [Ligand L4b, VEVPY]",
    "log10 of EC50": 1.72
  },
  {
    "COMPOUND": "CC(C)[C@@H]1NC(=O)[C@H](CCC(=O)O)NC(=O)CNC(=O)[C@@H](N)Cc2cn(nn2)CCCC[C@@H](C(=O)NCCOCCOCCOCCOCCOCCC(=O)NCCNC(=O)CCCC[C@@H]2SC[C@@H]3NC(=O)N[C@@H]32)NC(=O)[C@@H]2CCCN2C(=O)[C@H](C(C)C)NC1=O (single isomer, unassigned) [Ligand L3b, GEVVP]",
    "log10 of EC50": 1.14
  },
  {
    "COMPOUND": "NC(=O)CC[C@@H]1NC(=O)[C@@H](N)Cc2cn(nn2)CCCC[C@@H](C(=O)NCCOCCOCCOCCOCCOCCC(=O)NCCNC(=O)CCCC[C@@H]2SC[C@@H]3NC(=O)N[C@@H]32)NC(=O)[C@H](Cc2ccc(O)cc2)NC(=O)[C@H](Cc2ccccc2)NC(=O)[C@H](CC(N)=O)NC(=O)[C@H](CC(=O)O)NC1=O (single isomer, unassigned) [Ligand L9a, QDNFY]",
    "log10 of EC50": 0.73
  }
]

Let's switch to this compound now.
query: Query: log10 of EC50; subject: CC(C)[C@@H]1NC(=O)[C@@H](N)Cc2cn(nn2)CCCC[C@@H](C(=O)NCCOCCOCCOCCOCCOCCC(=O)NCCNC(=O)CCCC[C@@H]2SC[C@@H]3NC(=O)NC32)NC(=O)[C@H](Cc2ccc(O)cc2)NC(=O)[C@@H]2CCCN2C(=O)[C@H](C(C)C)NC(=O)[C@H](CCC(N)=O)NC1=O (single isomer, unassigned) [Ligand L7a, VQVPY]
result: 0.63

====

- MEASUREMENT TARGET: KRAS (Homo sapiens, UniProt P01116)
- Construct: His6-tagged human KRas Isoform 4B (residues 1-169); His6; made in house; host or cells: E. coli BL21(DE3), PQE80 vector
- Sequence (P01116 1-169 isoform P01116-2): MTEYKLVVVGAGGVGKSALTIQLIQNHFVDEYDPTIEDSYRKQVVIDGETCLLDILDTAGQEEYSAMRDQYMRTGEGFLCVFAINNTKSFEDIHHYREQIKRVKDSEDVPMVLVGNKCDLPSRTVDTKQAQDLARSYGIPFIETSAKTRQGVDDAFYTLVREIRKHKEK
- PROTOCOL SUMMARY: B-RAP surface immunofluorescent assay, PCC ligand KRas EC50
- Assay type: binding
- RUN PARAMETERS: 10 μM KRas well of plate #1, pixel by pixel, full lane
PARAMETER: Avg F635, Full Lane
# print the numeric value only

Use the examples below as a reference point.
[
  {
    "MOLECULE": "NC(=O)CC[C@@H]1NC(=O)[C@@H](N)Cc2cn(nn2)CCCC[C@@H](C(=O)NCCOCCOCCOCCOCCOCCC(=O)NCCNC(=O)CCCC[C@@H]2SC[C@@H]3NC(=O)N[C@@H]32)NC(=O)[C@H](Cc2ccc(O)cc2)NC(=O)[C@H](Cc2ccccc2)NC(=O)[C@H](CC(N)=O)NC(=O)[C@H](CC(=O)O)NC1=O (single isomer, unassigned) [Ligand L9a, QDNFY]",
    "Avg F635, Full Lane": 16612
  },
  {
    "MOLECULE": "CC(C)[C@@H]1NC(=O)[C@H](CCC(=O)O)NC(=O)[C@H](C(C)C)NC(=O)[C@@H](N)Cc2cn(nn2)CCCC[C@@H](C(=O)NCCOCCOCCOCCOCCOCCC(=O)NCCNC(=O)CCCC[C@@H]2SC[C@@H]3NC(=O)N[C@@H]32)NC(=O)[C@@H]2CCCN2C(=O)[C@H](Cc2ccc(O)cc2)NC1=O (single isomer, unassigned) [Ligand L5a, VEVYP]",
    "Avg F635, Full Lane": 7851
  }
]

Let's switch to this molecule now.
query: Query: Avg F635, Full Lane; subject: CC(C)[C@@H]1NC(=O)[C@@H](N)Cc2cn(nn2)CCCC[C@@H](C(=O)NCCOCCOCCOCCOCCOCCC(=O)NCCNC(=O)CCCC[C@@H]2SC[C@@H]3NC(=O)N[C@@H]32)NC(=O)[C@H](Cc2ccc(O)cc2)NC(=O)[C@@H]2CCCN2C(=O)[C@H](C(C)C)NC(=O)[C@H](CCC(=O)O)NC1=O (single isomer, unassigned) [Ligand L4b, VEVPY]
result: 25079
